Provenance of the data: paper PMC7529893

- testedSystem: MAGE-A11:PCF11 interaction (GST-MAGE-A11 and FAM-PCF11_4) (Homo sapiens)
- Construct: GST-MAGE-A11 MHD (human MAGE-A11 MHD amino acid 218-429); made in house; host or cells: E. coli BL21(DE3)
- assayExplanation: TR-FRET primary / single point screen at 15 µM
- Type: binding
- conditionContext: single point TR-FRET screening of quinoline compounds against MAGE-A11:PCF11; 15 µM
We begin with a simple list: items and their reported percent inhibition (TR-FRET).

Look over these answered cases.
>  <compound>
Clc1ccc2c(NCCCN(Cc3ccccc3)CC3CC=CCC3)ccnc2c1 (centres unmarked) [SJ000311182]

>  <testedSystem>
MAGE-A11:PCF11 interaction (GST-MAGE-A11 and FAM-PCF11_4) (Homo sapiens)

>  <percent inhibition (TR-FRET)>
16.0865

$$$$
>  <compound>
CCCN(CCCNc1ccnc2cc(Cl)ccc12)CCc1ccccc1 [SJ000357574]

>  <testedSystem>
MAGE-A11:PCF11 interaction (GST-MAGE-A11 and FAM-PCF11_4) (Homo sapiens)

>  <percent inhibition (TR-FRET)>
4.8836

$$$$

Task: percent inhibition (TR-FRET) lookup needed for Cn1cc(CN(CCCNc2ccnc3cc(Cl)ccc23)Cc2ccccc2)c2ccccc21 [SJ000520439] , thanks.
Output: -9.311

Task: percent inhibition (TR-FRET) lookup needed for CCCN(CCCNc1ccnc2cc(Cl)ccc12)Cc1c[nH]c2ccc(F)cc12 [SJ000522992] , thanks.
Output: 29.3392

Task: percent inhibition (TR-FRET) lookup needed for Clc1ccc2c(NCCCN(Cc3ccccc3)CC3CCCCC3)ccnc2c1 [SJ000361171] , thanks.
Output: 28.213

----------
- testedSystem: MAGE-A11:PCF11 interaction (GST-MAGE-A11 and FAM-PCF11_4) (Homo sapiens, UniProt P43364)
- Construct: GST-MAGE-A11 MHD (human MAGE-A11 MHD amino acid 218-429); made in house; host or cells: E. coli BL21(DE3)
- Sequence (P43364 218-429): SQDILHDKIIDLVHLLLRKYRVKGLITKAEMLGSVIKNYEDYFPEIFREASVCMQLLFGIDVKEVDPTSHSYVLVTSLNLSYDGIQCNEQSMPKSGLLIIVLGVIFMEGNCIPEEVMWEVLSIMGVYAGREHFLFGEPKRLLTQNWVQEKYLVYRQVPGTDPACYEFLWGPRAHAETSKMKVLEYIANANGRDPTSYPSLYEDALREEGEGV
- assayExplanation: TR-FRET primary / single point screen at 15 µM
- Type: binding
- conditionContext: single point TR-FRET screening of quinoline compounds against MAGE-A11:PCF11; 15 µM
measuredAttribute: percent inhibition (TR-FRET)
Output spec: single numeric token, no unit.

Look over these answered cases.
>  <compound>
COc1ccc2nc3cc(Cl)ccc3c(NCCCNCc3ccccc3N)c2c1 [SJ000523031]

>  <testedSystem>
MAGE-A11:PCF11 interaction (GST-MAGE-A11 and FAM-PCF11_4) (Homo sapiens, UniProt P43364)

>  <numericValue>
-57.1504

$$$$
>  <compound>
CCOC(=O)c1cnc2c(C(F)(F)F)cccc2c1NCCCN1CCOCC1 [SJ000131358]

>  <testedSystem>
MAGE-A11:PCF11 interaction (GST-MAGE-A11 and FAM-PCF11_4) (Homo sapiens, UniProt P43364)

>  <numericValue>
10.0613

$$$$
>  <compound>
CCCN(CCCNc1ccnc2cc(C(F)(F)F)ccc12)Cc1cc(F)ccc1OC [SJ000520475]

>  <testedSystem>
MAGE-A11:PCF11 interaction (GST-MAGE-A11 and FAM-PCF11_4) (Homo sapiens, UniProt P43364)

>  <numericValue>
15.746

$$$$
>  <compound>
CCCN(CCCNc1ccnc2cc(Cl)ccc12)Cc1ccc(C)o1 [SJ000357437]

>  <testedSystem>
MAGE-A11:PCF11 interaction (GST-MAGE-A11 and FAM-PCF11_4) (Homo sapiens, UniProt P43364)

>  <numericValue>
20.147

$$$$

Task: percent inhibition (TR-FRET) lookup needed for COc1ccc2nc3cc(Cl)ccc3c(NCCCNCc3c(Cl)ccc(Cl)c3Cl)c2c1 [SJ000522960] , thanks.
Output: -81.4922

Task: percent inhibition (TR-FRET) lookup needed for FC(F)(F)c1cccc(Cc2ccc3c(NCCCNCc4ccco4)ccnc3c2)c1 [SJ000311298] , thanks.
Output: 27.0086

Task: percent inhibition (TR-FRET) lookup needed for COc1ccc(O)c(CN(CCCNc2ccnc3cc(Cl)ccc23)Cc2ccccc2)c1 [SJ000357463] , thanks.
Output: 14.1686

Task: percent inhibition (TR-FRET) lookup needed for CCCCCNCCCNc1ccnc2cc(Cl)ccc12 [SJ000523057] , thanks.
Output: 25.8183

Task: percent inhibition (TR-FRET) lookup needed for CCCN(CCCNc1ccnc2cc(Cl)ccc12)Cc1c[nH]c(C)n1 [SJ000522990] , thanks.
Output: 4.828
